- Study target: ATP-dependent translocase ABCB1 (Homo sapiens)
- Assay summary: Inhibition of human ABCB1 expressed in mouse L5178 cells assessed as 95% inhibition of cell proliferation at compound-doxorubicin ratio of 40.8:1 after 48 hrs by MTT assay
- Type: cell-based
- Run parameters: l5178, 48 h
Property name: fractional inhibitory concentration index (FICI)

Compound	Study target	Reading
C=C(C)CC[C@@H](O)[C@](C)(O)[C@H]1CC[C@@]2(O)C3=CC(=O)[C@@H]4C[C@@H](O)[C@@H](O)C[C@]4(C)C3=CC[C@]12C	ATP-dependent translocase ABCB1 (Homo sapiens)	0.43

Items follow; give fractional inhibitory concentration index (FICI) for each.
1. CC[C@H](C[C@@H](O)[C@](C)(O)[C@H]1CC[C@@]2(O)C3=CC(=O)[C@@H]4C[C@@H](O)[C@@H](O)C[C@]4(C)[C@H]3CC[C@]12C)C(C)(C)O
2. C[C@@H]1C(=O)O[C@H](C)[C@H]1C[C@@H](O)[C@](C)(O)[C@H]1CC[C@@]2(O)C3=CC(=O)[C@@H]4C[C@@H](O)[C@@H](O)C[C@]4(C)[C@H]3CC[C@]12C
3. CC(C)CC[C@@H](O)[C@](C)(O)[C@H]1CC[C@@]2(O)C3=CC(=O)[C@@H]4C[C@@H](O)[C@@H](O)C[C@]4(C)C3=CC[C@]12C
4. CC(=O)O[C@H]1C[C@@]2(C)[C@@H](C[C@H]1OC(C)=O)C(=O)C=C1[C@@H]2CC[C@]2(C)[C@@H]([C@@](C)(O)[C@@H](CCC(C)(C)O)OC(C)=O)CC[C@@]12O

Response:
0.2
0.47
5.46
0.7

Items follow; give fractional inhibitory concentration index (FICI) for each.
1. CC(C)(O)CC[C@@H](O)[C@](C)(O)[C@H]1CC[C@@]2(O)C3=CC(=O)[C@@H]4C[C@@H](O)CC[C@]4(C)[C@H]3CC[C@]12C
2. CC(=O)O[C@H]1C[C@]2(C)[C@H]3CC[C@]4(C)[C@@H]([C@@](C)(O)[C@@H](CCC(C)(C)O)OC(C)=O)CC[C@@]4(O)C3=CC(=O)[C@]2(O)C[C@H]1OC(C)=O
3. CC(O)(CO)CC[C@H]1OC(C)(C)O[C@]1(C)[C@H]1CC[C@@]2(O)C3=CC(=O)[C@]4(O)C[C@@H](O)[C@@H](O)C[C@]4(C)[C@H]3CC[C@]12C (some centres not stated)

Response:
1. 2.26
2. 0.26
3. 0.062

Items follow; give fractional inhibitory concentration index (FICI) for each.
1. C[C@]12C[C@H](O)[C@H](O)C[C@H]1C(=O)C=C1[C@@H]2CC[C@]2(C)C(=O)CC[C@@]12O
2. CC(C)[C@@H](O)C[C@@H](O)[C@](C)(O)[C@H]1CC[C@@]2(O)C3=CC(=O)[C@@H]4C[C@@H](O)[C@@H](O)C[C@]4(C)[C@H]3CC[C@]12C
3. CCC1C[C@H]([C@](C)(O)[C@H]2CC[C@@]3(O)C4=CC(=O)[C@@H]5C[C@@H](O)[C@@H](O)C[C@]5(C)[C@H]4CC[C@]23C)OC(=O)C1C (some centres not stated)
4. CC(C)(O)CC[C@@H](OC(=O)c1ccccc1)[C@](C)(O)[C@H]1CC[C@@]2(O)C3=CC(=O)[C@@H]4C[C@@H](O)[C@@H](O)C[C@]4(C)[C@H]3CC[C@]12C

Response:
1: 0.41; 2: 0.54; 3: 0.49; 4: 0.32

* * *

- Study target: ATP-dependent translocase ABCB1 (Homo sapiens, UniProt P08183)
- Sequence (P08183 whole entry): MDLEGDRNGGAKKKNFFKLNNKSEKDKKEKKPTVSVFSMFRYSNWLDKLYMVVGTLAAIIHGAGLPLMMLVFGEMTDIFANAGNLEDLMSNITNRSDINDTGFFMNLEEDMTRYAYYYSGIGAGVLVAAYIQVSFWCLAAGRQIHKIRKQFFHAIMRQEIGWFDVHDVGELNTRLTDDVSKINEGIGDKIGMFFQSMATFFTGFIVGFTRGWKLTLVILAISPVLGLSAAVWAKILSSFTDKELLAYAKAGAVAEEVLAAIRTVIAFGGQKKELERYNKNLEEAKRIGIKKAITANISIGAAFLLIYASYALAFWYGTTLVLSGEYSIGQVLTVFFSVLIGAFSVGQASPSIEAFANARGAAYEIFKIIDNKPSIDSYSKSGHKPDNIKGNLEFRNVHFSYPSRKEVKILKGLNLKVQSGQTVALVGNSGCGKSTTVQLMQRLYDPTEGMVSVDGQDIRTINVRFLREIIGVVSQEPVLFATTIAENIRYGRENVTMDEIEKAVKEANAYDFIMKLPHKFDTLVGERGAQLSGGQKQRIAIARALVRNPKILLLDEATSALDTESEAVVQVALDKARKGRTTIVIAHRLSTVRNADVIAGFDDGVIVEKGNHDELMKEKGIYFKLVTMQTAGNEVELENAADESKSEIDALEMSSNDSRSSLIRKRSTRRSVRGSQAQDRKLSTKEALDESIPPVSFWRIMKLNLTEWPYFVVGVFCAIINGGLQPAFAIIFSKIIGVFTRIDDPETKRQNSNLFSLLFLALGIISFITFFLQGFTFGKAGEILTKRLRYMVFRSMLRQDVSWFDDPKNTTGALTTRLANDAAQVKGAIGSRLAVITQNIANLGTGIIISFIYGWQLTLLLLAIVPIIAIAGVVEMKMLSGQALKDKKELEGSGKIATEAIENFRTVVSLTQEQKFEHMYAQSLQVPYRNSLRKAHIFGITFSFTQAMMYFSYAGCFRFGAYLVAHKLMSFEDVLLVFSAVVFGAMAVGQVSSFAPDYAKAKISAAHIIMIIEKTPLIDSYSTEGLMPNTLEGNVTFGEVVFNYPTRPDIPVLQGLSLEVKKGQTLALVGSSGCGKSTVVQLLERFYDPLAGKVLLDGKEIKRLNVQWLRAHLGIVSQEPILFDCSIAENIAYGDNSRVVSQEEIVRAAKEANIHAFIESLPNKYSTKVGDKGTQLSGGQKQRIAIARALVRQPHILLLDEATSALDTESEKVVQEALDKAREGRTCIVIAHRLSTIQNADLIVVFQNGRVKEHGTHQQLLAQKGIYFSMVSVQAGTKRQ
- Assay summary: Inhibition of human ABCB1 expressed in mouse L5178 cells assessed as 75% inhibition of cell proliferation at compound-doxorubicin ratio of 40.8:1 after 48 hrs by MTT assay
- Assay type: cell-based
- Run parameters: l5178, 48 h
Property name: fractional inhibitory concentration index (FICI)
Answers are plain numbers.

Compound	Reading
C=C(CCCC(C)(C)O)[C@H]1CC[C@@]2(O)C3=CC(=O)[C@@H]4C[C@@H](O)[C@@H](O)C[C@]4(C)[C@H]3CC[C@]12C	0.71
C[C@]12C[C@H](O)[C@H](O)C[C@H]1C(=O)C=C1[C@@H]2CC[C@]2(C)C(=O)CC[C@@]12O	0.65
C=C(C)CC[C@@H](O)[C@](C)(O)[C@H]1CC[C@@]2(O)C3=CC(=O)[C@@H]4C[C@@H](O)[C@@H](O)C[C@]4(C)C3=CC[C@]12C	0.85

Items follow; give fractional inhibitory concentration index (FICI) for each.
1. CC(C)(O)CC[C@@H](OC(=O)c1ccccc1)[C@](C)(O)[C@H]1CC[C@@]2(O)C3=CC(=O)[C@@H]4C[C@@H](O)[C@@H](O)C[C@]4(C)[C@H]3CC[C@]12C
2. CCC1C[C@H]([C@](C)(O)[C@H]2CC[C@@]3(O)C4=CC(=O)[C@@H]5C[C@@H](O)[C@@H](O)C[C@]5(C)[C@H]4CC[C@]23C)OC(=O)C1C (some centres not stated)
3. CC(=O)O[C@H]1C[C@]2(C)[C@H]3CC[C@]4(C)[C@@H]([C@@](C)(O)[C@@H](CCC(C)(C)O)OC(C)=O)CC[C@@]4(O)C3=CC(=O)[C@]2(O)C[C@H]1OC(C)=O
4. CC(C)(O)CC[C@@H](O)[C@](C)(O)[C@H]1CC[C@@]2(O)C3=CC(=O)[C@@H]4C[C@@H](O)CC[C@]4(C)[C@H]3CC[C@]12C

Response:
0.43
0.74
0.3
1.48

* * *

Field: Ratio. Provide a value for each of the molecules that follow.
- Study target: UniProt P08183
- Assay summary: Inhibition of human ABCB1 pump expressed in mouse L5178 cells assessed as fluorescence activity ratio at 20 uM for 10 mins by flow cytometry relative to control
- Format: cell-based
- Run parameters: l5178, 10 min
One number for each entry.

Molecule	Ratio
CC[C@H](C[C@H]1OC(C)(C)O[C@]1(C)[C@H]1CC[C@@]2(O)C3=CC(=O)[C@@H]4C[C@@H](O)[C@@H](O)C[C@]4(C)[C@H]3CC[C@]12C)C(C)(C)O	1.21
CC(C)(O)CC[C@@H](O)[C@](C)(O)[C@H]1CC[C@@]2(O)C3=CC(=O)[C@H]4C[C@@H](O)C[C@@H](O)[C@]4(C)[C@H]3CC[C@]12C	0.68
CC(C)CC[C@@H](O)[C@](C)(O)[C@H]1CC[C@@]2(O)C3=CC(=O)[C@]4(O)C[C@@H](O)[C@@H](O)C[C@]4(C)[C@H]3[C@H](O)C[C@]12C	0.74
CC(O)(CO)CC[C@H]1OC(C)(C)O[C@]1(C)[C@H]1CC[C@@]2(O)C3=CC(=O)[C@]4(O)C[C@@H](O)[C@@H](O)C[C@]4(C)[C@H]3CC[C@]12C (some centres not stated)	13.32

Items follow; give Ratio for each.
1. CC(C)CC[C@H]1OC(C)(C)O[C@]1(C)[C@H]1CC[C@@]2(O)C3=CC(=O)[C@@H]4C[C@H]5OC(C)(C)O[C@H]5C[C@]4(C)C3=CC[C@]12C
2. CC(=O)O[C@H]1CC[C@@]2(C)[C@@H](C1)C(=O)C=C1[C@@H]2CC[C@]2(C)[C@@H]([C@H](C)[C@@H](CCC(C)(C)OC(C)=O)OC(C)=O)CC[C@@]12O
3. CC(C)CC[C@H]1OC(C)(C)O[C@]1(C)[C@H]1CC[C@@]2(O)C3=CC(=O)[C@@H]4C[C@H]5OC(C)(C)O[C@H]5C[C@]4(C)[C@H]3[C@H](O)C[C@]12C

Response:
41.15
25.07
46.49

* * *

- Study target: UniProt:P08183
- Assay summary: Inhibition of human ABCB1 pump expressed in mouse L5178 cells assessed as fluorescence activity ratio at 20 uM for 10 mins by flow cytometry relative to control
- Format: cell-based
- Run parameters: l5178, 10 min
Assign class by Ratio: not lower than 1 means Y; lower than 1 means N.

Recorded results for 2 compounds are shown here.
Compound	Classification
CC(C)(O)CC[C@H]1OC(C)(C)O[C@]1(C)[C@H]1CC[C@@]2(O)C3=CC(=O)[C@H]4C[C@@H](O)CC[C@]4(C)[C@H]3CC[C@]12C	Y
CC(C)(O)CC[C@H]1OC(C)(C)O[C@]1(C)[C@H]1CC[C@@]2(O)C3=CC(=O)[C@@H]4C[C@@H](O)[C@@H](O)C[C@]4(C)[C@H]3CC[C@]12C	Y

Prompt: Please indicate if the recorded Ratio for CC(C)(O)CC[C@@H](O)[C@](C)(O)[C@H]1CC[C@@]2(O)C3=CC(=O)[C@@H]4C[C@@H](O)CC[C@]4(C)[C@H]3CC[C@]12C meets or exceeds 1.
Response: N

Prompt: Please indicate if the recorded Ratio for CC(C)(O)CC[C@H]1OC(C)(C)O[C@]1(C)[C@H]1CC[C@@]2(O)C3=CC(=O)[C@]4(O)C[C@@H](O)[C@@H](O)C[C@]4(C)[C@H]3CC[C@]12C meets or exceeds 1.
Response: Y

Prompt: Please indicate if the recorded Ratio for CC(C)(O)CCC[C@](C)(O)[C@H]1CC[C@@]2(O)C3=CC(=O)[C@@H]4C[C@@H](O)[C@@H](O)[C@@H](O)[C@]4(C)[C@H]3CC[C@]12C meets or exceeds 1.
Response: N

From: ChEMBL document CHEMBL2086273
